test system: K562; assay: NCI tumour cell line growth inhibition, 48 h
Activity calls are given as the source filed them. Cut-off read from the data, not from the text of the source: active = GI50 up to about 1.1 µM and inactive = higher.
Please provide measured GI50 for the entries that follow.

Give the measured GI50 for CCCCC1c2c([nH]c3ccccc23)C2C(=O)N(c3ccc(OC)cc3)C(=O)C2C1CCC (stereo not given) 3.29 µM (inactive)

Give the measured GI50 for COc1cc2c(cc1O)C(=O)O[C@@H]1CC=C3CCN(C)[C@H]3[C@H]21 > 25 µM (inactive)

Give the measured GI50 for CC(=O)CCCCO > 100 µM (inactive)

Give the measured GI50 for O=C(CC(O)(C(F)(F)F)C(F)(F)F)C(CCCl)C(O)(C(F)(F)F)C(F)(F)F (stereo not given) 39.7 µM (inactive)

Please find the next molecule below.
Give the measured GI50 for Cc1ccc(S(=O)(=O)N/N=C(\c2nc3ccc(Cl)cc3nc2O)C(O)c2cccc([N+](=O)[O-])c2)cc1 (stereo not given) > 100 µM (inactive)

---

test system: SK-MEL-5; experiment: NCI tumour cell line growth inhibition, 48 h
Calls of active or inactive are those of the source. Rule as the data show it: active = GI50 up to about 1.1 µM and inactive = higher.
reported_metric: GI50

Give the measured GI50 for CN(C)CCNC(=O)c1cccc2ccc(-c3ccncc3)nc12 1.55 µM (inactive)

Give GI50 for each listed item.
1. O=C(C/C(=N/O)C(F)(F)F)c1cccs1
2. COc1ccc2c3c1OC1C(=O)C=CC4(O)C(C2)NCC[C@@]314 (some centres not stated)
3. Brc1cccc(C2SCc3nc4ccccc4n32)c1 (configuration not stated)
4. O=C(O)/C=c1/c2ccccc2n2nc3ccccc3c12

["> 100 µM (inactive)", "4.16 µM (inactive)", "6.4 µM (inactive)", "14.2 µM (inactive)"]

Give GI50 for each listed item.
1. c1ccc2c(Nc3ccc(Oc4ccc(Nc5c6ccccc6nc6ccccc56)cc4)cc3)c3ccccc3nc2c1
2. O=[N+]([O-])c1ccc2c(c1)S(=O)(=O)N1Cc3ccccc3CCN21

["1.57 µM (inactive)", "> 100 µM (inactive)"]

---

test system: HL-60; assay: NCI tumour cell line growth inhibition, 48 h
Active and inactive are the calls of the source. Cut-off read from the data, not from the text of the source: active = GI50 up to about 1.1 µM and inactive = higher.
reported_metric: GI50

Give the measured GI50 for O=C1C=CC(=O)c2nc3c(cc21)CCC3 4.67 µM (inactive)

Give the measured GI50 for COc1cc(CNC(=S)CCCCCCCCCCC(C)C)ccc1O 13.3 µM (inactive)

Give GI50 for each listed item.
1. CCOC1c2nc3ccccc3nc2-c2ccccc2N1C(C)=O (stereo unspecified)
2. CCOC(=O)/C(=C\c1cccc(C)c1)C(C)=O
3. CC1=CC(=O)/C(=C/n2c(=S)[nH]c3ccccc32)C(=O)O1
4. O=S(=O)(O)c1cc(/N=[N+](\[O-])c2ccc(/N=N/c3ccccc3)cc2S(=O)(=O)O)ccc1/C=C/c1ccc(/N=[N+](\[O-])c2ccc(/N=N/c3ccccc3)cc2S(=O)(=O)O)cc1S(=O)(=O)O
5. COc1cc(Cn2c3c(c4cc(O)ccc42)Cc2ccccc2C3=O)cc(OC)c1
6. O[C@@H]1C[C@@H]2N[C@@](O)(C[C@@H]2O)[C@H]1O

> 100 µM (inactive)
3.98 µM (inactive)
< 0.01 µM (active)
> 100 µM (inactive)
> 100 µM (inactive)
> 100 µM (inactive)

Give GI50 for each listed item.
1. O=[N+]([O-])C(=C1NCCN1)/C(Cl)=C(\Cl)Br
2. O=c1[nH]c2ccc(Cl)cc2o1
3. N#Cc1c(=O)c2cc([N+](=O)[O-])ccc2n2c1[nH]c1ccccc12
4. COc1cc2c(cc1OC)C(Cl)C(c1ccc(Cl)c(Cl)c1)=C2Cl (stereo unspecified)
5. CCCC(c1cc(C(C)(C)C)c(O)cc1C)c1cc(C(C)(C)C)c(O)cc1C
6. CCOP(=O)(O)C1C(CO)OC(n2ccc(=O)[nH]c2=O)C1O (stereo unspecified)
7. CCOc1ccccc1NC(=O)/C=C1\NC(=O)CS1

["10.6 µM (inactive)", "> 100 µM (inactive)", "4.81 µM (inactive)", "2.47 µM (inactive)", "2.27 µM (inactive)", "> 100 µM (inactive)", "> 100 µM (inactive)"]

---

system: HT-29; experiment: NCI tumour cell line growth inhibition, 48 h
Active and inactive are the calls of the source. Cut-off read from the data, not from the text of the source: active = GI50 up to about 1.1 µM and inactive = higher.
Reply using exactly one outcome from active, inactive

Hi team, can someone confirm the assay call for Cc1c2c(n3c(nc4ccccc43)c1C#N)NCC2 ? inactive

Hi team, can someone confirm the assay call for O=[N+]([O-])c1ccc2c(c1)C1=C(CO2)Cc2ccccc2O1 ? inactive

Hi team, can someone confirm the assay call for OC(c1cc2ccccc2[nH]1)C1(c2cccnc2)SCCCS1 (stereo not drawn) ? inactive

---

system: MDA-N; assay: NCI tumour cell line growth inhibition, 48 h
The source made the active and inactive calls. Cut-off read from the data, not from the text of the source: active = GI50 up to about 1.1 µM and inactive = higher.
Reply using exactly one outcome from y for active, n for inactive

Below are worked cases with known answers.
Hi team, can someone confirm the assay call for COC(=O)C12CCCN1CCC2 ? n

Hi team, can someone confirm the assay call for O=C1CCC(=O)N1CNc1ccc2c(c1)Sc1ccccc1O2 ? n

Hi team, can someone confirm the assay call for NNC(=O)c1cc([N+](=O)[O-])ccc1NC(=O)C12CC3CC(CC(C3)C1)C2 ? n

Hi team, can someone confirm the assay call for CCN(CC)Cc1cc(Nc2ccnc3ccc4c(nnn4C)c23)ccc1O ? n

Hi team, can someone confirm the assay call for O=C1/C(=C/c2ccc(O)c(O)c2)CC/C1=C\c1ccc(O)c(O)c1 ? n

More entries:
Hi team, can someone confirm the assay call for COc1cccc2c1C(=O)c1c(O)c3c(c(O)c1C2=O)CC(O)(C(O)CO)CC3OC1CC2C(OC3COCC(C#N)N32)C(C)O1 (stereo not given) ? y

Hi team, can someone confirm the assay call for CC(C)=CC1C(COC(=O)c2cc3c(cc2Cl)OCO3)C1(C)C (stereo not given) ? n

Hi team, can someone confirm the assay call for CCCC(C)NC(=O)c1ccc(N(C)Cc2cnc3nc(N)nc(N)c3n2)cc1 (stereo not given) ? n

Hi team, can someone confirm the assay call for CC(=O)O[C@@H]1C(=O)N(c2ccccc2)[C@@H]1c1cc2ccccc2c2ccccc12 ? n

Hi team, can someone confirm the assay call for O=C1c2ccccc2C(=O)N1c1ccc(OCCN2CCCCC2)cc1 ? n

---

system: IGROV-1; test: NCI tumour cell line growth inhibition, 48 h
Active and inactive are the calls of the source. No stated cut-off is given here; in the data, active = GI50 up to about 1.1 µM and inactive = higher.
reported_metric: GI50

Give GI50 for each listed item.
1. N/N=C1\C(OC(=O)Nc2ccccc2)=Nc2ccccc21
2. CNCCCNC(=S)Cn1cc(C)c(=O)[nH]c1=O
3. N#C/N=C(/NCCc1c[nH]c2ccccc12)Oc1ccccc1

1. 14.8 µM (inactive)
2. > 39.5 µM (inactive)
3. > 100 µM (inactive)

---

system: COLO 205; experiment: NCI tumour cell line growth inhibition, 48 h
Activity calls are given as the source filed them. No stated cut-off is given here; in the data, active = GI50 up to about 1.1 µM and inactive = higher.
reported_metric: GI50

Example results:
Give the measured GI50 for CCC1(c2ccc(OC)c(OC)c2)CCN(S(=O)(=O)c2ccc(C)cc2)C1 (stereo unspecified) > 100 µM (inactive)

Give the measured GI50 for Cc1ccc([Se][Se]c2ccc(C)cc2)cc1 > 100 µM (inactive)

Give GI50 for each listed item.
1. CCO[C@]12CCC[C@H]1[C@@H]1C(=O)c3ccccc3C(=O)C1=C(C)O2
2. [O-][S+]1Nc2c(Cl)cc(Cl)c3c(Cl)cc(Cl)c(c23)N1
3. O=c1c2cc(Br)ccc2n(C2OC(CO)C(O)C(O)C2O)c(=S)n1-c1ccccc1 (stereo unspecified)
4. CCN(CC)CCNC(=O)C1COc2ccc(-c3cc(=O)c4ccccc4o3)cc2O1 (stereo unspecified)
5. COc1ccc(/C=c2\sc3nnc(CCC(=O)Nc4cccc(C(F)(F)F)c4)n3c2=O)cc1
6. CCOC(=O)c1cc(/C=C/C(C)=C/C(=O)OC)oc1C
7. COc1cc(C(c2cc3c(cc2O)OCO3)N2CCCC2)cc(OC)c1OC (stereo unspecified)

1. > 100 µM (inactive)
2. > 100 µM (inactive)
3. > 100 µM (inactive)
4. 17.9 µM (inactive)
5. > 100 µM (inactive)
6. > 100 µM (inactive)
7. 11.7 µM (inactive)

---

Please provide measured GI50 for the entries that follow.
system: IGROV-1; assay: NCI tumour cell line growth inhibition, 48 h
Active and inactive are the calls of the source. No stated cut-off is given here; in the data, active = GI50 up to about 1.1 µM and inactive = higher.

Give the measured GI50 for CCOC(=O)c1cc(/C=C/C(C)=C/C(=O)OC)oc1C > 100 µM (inactive)

Give the measured GI50 for O=[N+]([O-])c1ccc(C2c3c(O)nc(S)nc3Oc3nc(S)nc(O)c32)cc1 > 100 µM (inactive)

Give the measured GI50 for CCc1nc(N)nc(N)c1-c1ccc([N+](=O)[O-])c(Cl)c1 3.31 µM (inactive)

Give the measured GI50 for CC(O)C(NC(=O)C(CS)NC(=O)C(CO)NC(=O)C(CCCCN)NC(=O)C(Cc1c[nH]c2ccccc12)NC(=O)C(Cc1ccc(O)cc1)NC(=O)C(CS)NC(=O)C(N)Cc1ccccc1)C(N)=O (centres undefined) > 25 µM (inactive)

Give the measured GI50 for CCN(CC)Cc1cc(Nc2ccnc3ccc4c(nnn4C)c23)ccc1O 15.4 µM (inactive)

Give GI50 for each listed item.
1. COc1ccc2c(c1)CC1NC2Cc2ccccc21 (centres undefined)
2. COC1/C=C\OC2(C)Oc3c(C)c(O)c4c(O)c(c(CN(C)C)c(O)c4c3C2=O)NC(=O)/C(C)=C\C=C/C(C)C(O)C(C)C(O)C(C)C(OC(C)=O)C1C (centres undefined)
3. O=c1[nH]c(Br)nc2c(N3CCCCC3)c[nH]c12
4. CC1CCP(=O)(c2ccccc2)c2ccccc21 (centres undefined)

1: > 100 µM (inactive); 2: 33.7 µM (inactive); 3: > 100 µM (inactive); 4: > 100 µM (inactive)

All figures here come from ChEMBL document CHEMBL1201862.
